So I've got a bunch of compounds here, and I need their IC50 values.
- Target or system: human ether a go-go related gene (hERG) K+ channel (Homo sapiens, UniProt Q12809)
- Construct: a Chinese Hamster Lung cell line stably expressing the full length hERG channel
- Sequence (Q12809 whole entry): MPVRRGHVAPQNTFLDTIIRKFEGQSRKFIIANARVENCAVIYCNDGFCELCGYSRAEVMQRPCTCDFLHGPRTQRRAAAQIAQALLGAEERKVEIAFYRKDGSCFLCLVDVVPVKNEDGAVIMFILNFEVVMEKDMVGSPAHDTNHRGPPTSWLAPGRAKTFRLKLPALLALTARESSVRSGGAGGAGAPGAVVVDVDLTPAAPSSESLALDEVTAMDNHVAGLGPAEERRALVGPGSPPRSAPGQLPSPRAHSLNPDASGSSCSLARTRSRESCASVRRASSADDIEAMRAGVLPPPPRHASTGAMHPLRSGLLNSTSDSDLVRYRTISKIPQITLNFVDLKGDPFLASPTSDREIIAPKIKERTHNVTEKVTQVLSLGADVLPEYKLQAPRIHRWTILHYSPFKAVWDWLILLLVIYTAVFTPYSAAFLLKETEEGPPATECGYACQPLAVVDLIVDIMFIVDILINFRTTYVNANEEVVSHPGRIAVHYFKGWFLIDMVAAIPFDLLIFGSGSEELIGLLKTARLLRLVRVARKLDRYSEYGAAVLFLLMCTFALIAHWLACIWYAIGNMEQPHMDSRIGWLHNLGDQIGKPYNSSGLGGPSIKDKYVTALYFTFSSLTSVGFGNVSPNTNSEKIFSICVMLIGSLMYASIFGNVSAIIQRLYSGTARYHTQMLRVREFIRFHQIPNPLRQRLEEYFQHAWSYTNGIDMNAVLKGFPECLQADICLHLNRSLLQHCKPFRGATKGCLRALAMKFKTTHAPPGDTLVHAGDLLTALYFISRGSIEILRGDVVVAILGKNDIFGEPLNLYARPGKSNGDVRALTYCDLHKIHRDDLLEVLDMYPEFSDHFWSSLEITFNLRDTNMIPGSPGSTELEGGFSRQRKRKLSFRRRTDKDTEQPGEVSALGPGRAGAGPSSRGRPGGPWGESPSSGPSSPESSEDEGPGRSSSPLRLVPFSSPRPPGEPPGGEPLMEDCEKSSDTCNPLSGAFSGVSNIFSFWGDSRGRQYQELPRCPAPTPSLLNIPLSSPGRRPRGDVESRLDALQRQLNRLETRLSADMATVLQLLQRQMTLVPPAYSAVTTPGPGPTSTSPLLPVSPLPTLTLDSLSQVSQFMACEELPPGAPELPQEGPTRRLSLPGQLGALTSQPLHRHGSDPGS
- Procedure summary: hERG assay, IonWorks patch clamp electrophysiology
- Applied conditions: Chinese Hamster Lung cell line stably expressing hERG; maximum assay concentration 33 uM
- Description: Compounds of the invention were tested for inhibition of the human ether a go-go related gene (hERG) K^+ channel using IonWorks patch clamp electrophysiology. […] Single cell ion currents were measured in the perforated patch clamp configuration (100 ug/mL amphoterocin) at room temperature using an IonWorks Quattro instrument. […] Currents were measured from the tail step at the 5th pulse, and referenced to the holding current. […]
Give bare numbers, in µM.

Compound: CC(=O)c1ccc2c(c1)[C@H](NC(=O)c1ccc(F)c(Cl)c1)[C@H](OC(=O)[C@H](C)N)C(C)(C)O2.Cl [Example 1, hydrochloride]
Measurement kind: IC50
Unit spec: µM
Quantitative readout: 6

Compound: CC(=O)c1ccc2c(c1)[C@H](NC(=O)c1ccc(F)c(Cl)c1)[C@H](OC(=O)[C@H](N)C(C)C)C(C)(C)O2.Cl [Example 3, hydrochloride]
Measurement kind: IC50
Unit spec: µM
Quantitative readout: 4.3

Fill in the blank: the reported IC50 of CC(=O)c1ccc2c(c1)[C@H](NC(=O)c1ccc(F)c(Cl)c1)[C@H](OC(=O)[C@@H]1CCCN1)C(C)(C)O2.Cl [Example 5, hydrochloride] is ____.
1.4

* * *

- Procedure summary: Solubility in aqueous solution
- Format: physicochemical
- Applied conditions: pH 5.1, aqueous buffer
Measurement kind: solubility

I'd like to know its solubility. The compound in question is `CN[C@@H](C)C(=O)O[C@H]1[C@@H](NC(=O)c2ccc(F)c(Cl)c2)c2cc(C(C)=O)ccc2OC1(C)C.Cl`
> 10000 µg/mL

* * *

- Procedure summary: Solubility in aqueous solution
- Assay type: physicochemical
- Applied conditions: aqueous buffer, pH 3.0
Measurement kind: solubility

Sample `CC(=O)c1ccc2c(c1)[C@H](NC(=O)c1ccc(F)c(Cl)c1)[C@H](OCOC[C@@H](O)CO)C(C)(C)O2` — what was its solubility?
< 1000 µg/mL

* * *

- Procedure summary: Solubility in aqueous solution
- Assay type: physicochemical
- Applied conditions: pH 4.2, aqueous buffer
Measurement kind: solubility

Look at this molecule and give its reported solubility. `CC(=O)c1ccc2c(c1)[C@H](NC(=O)c1ccc(F)c(Cl)c1)[C@H](OC(=O)[C@H](N)CC(C)C)C(C)(C)O2.Cl`
> 10000 µg/mL

* * *

- Procedure summary: Solubility in aqueous solution
- Format: physicochemical
- Applied conditions: pH 4.8, aqueous buffer
- Protocol: In an embodiment prodrugs of the present invention are suitable for oral administration. The skilled person understands that the pH of the gastrointestinal tract changes along its length. For example, the stomach has a pH of around pH 1.5 and the GI tract after the stomach has a pH of around 5 to 7.5. […] Compounds of the invention were assessed for solubility in aqueous solutions having a pH of from 2 to 10. […]
Measurement kind: solubility

Find the recorded solubility belonging to `CC(=O)c1ccc2c(c1)[C@H](NC(=O)c1ccc(F)c(Cl)c1)[C@H](OC(=O)[C@H](N)C(C)C)C(C)(C)O2.Cl` and report it.
< 1000 µg/mL
